Target: T1, dog activated Protein C (dog, UniProt Q28278 43-456)
T1 construct: mature; also called dog aPC; dAPC
T1 sequence (looked up): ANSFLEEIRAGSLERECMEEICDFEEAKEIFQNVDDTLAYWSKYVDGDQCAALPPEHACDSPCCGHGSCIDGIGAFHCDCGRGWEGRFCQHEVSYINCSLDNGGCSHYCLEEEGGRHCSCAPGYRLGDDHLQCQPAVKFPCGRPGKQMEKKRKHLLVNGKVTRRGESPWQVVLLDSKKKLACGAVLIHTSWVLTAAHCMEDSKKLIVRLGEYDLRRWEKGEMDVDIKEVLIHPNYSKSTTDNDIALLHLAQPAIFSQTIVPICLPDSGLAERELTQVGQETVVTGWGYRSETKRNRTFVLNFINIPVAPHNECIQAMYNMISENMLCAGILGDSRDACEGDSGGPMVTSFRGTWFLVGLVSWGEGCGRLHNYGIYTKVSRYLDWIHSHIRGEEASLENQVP
Test: direct ELISA, aPC coated, hIgG1
Record form. Attribute: EC50. Fill in for each entry.
Form entry: value (nM) — number only.

[in] Bench note: what EC50 did C7I7 hIgG1 (antibody, V domains shown, also called C717-IgG) VH: EVQLLESGGGLVQPGGSLRLSCAASGFTFGNHWMTWVRQAPGKGLEWVSGVSWNGSRTHYADSVKGRFTISRDNSKNTLYLQMNSLRAEDTAVYYCALTGRSGWMRFPNWFDPWGQGTLVTVTS VL: QSVLTQPPSASGTPGQRVTISCTGSSSNIGAGYDVHWYQQLPGTAPKLLIYGNSNRPSGVPDRFSGSKSGTSASLAISGLRSEDEAAYYCSSYVGSDLVVFGGGTKLTVLG show?
[out] 2.3

[in] Bench note: what EC50 did C25K23 IgG1 (antibody, V domains shown, the claims call them variable regions; also called C25K23 hIgG; C25K23 hIgG1) VH: EVQLLESGGGLVQPGGSLRLSCAASGFTFSSYWMSWVRQAPGKGLEWVSGVSWNGSRTHYADSVKGRFTISRDNSKNTLYLQMNSLRAEDTAVYYCALTGRSGWMRFPNWFDPWGQGTLVTVSS VL: QSVLTQPPSASGTPGQRVTISCTGSSSNIGAAYDVHWYQQLPGTAPKLLIYGNNKRPSGVPDRFSGSKSGTSASLAISGLRSEDEADYYCQSYDSSLSGSVFGGGTKLTVLG show?
[out] 3.4

[in] Bench note: what EC50 did T46J23-hIgG1 (antibody, V domains shown, also called T46J23-IgG) VH: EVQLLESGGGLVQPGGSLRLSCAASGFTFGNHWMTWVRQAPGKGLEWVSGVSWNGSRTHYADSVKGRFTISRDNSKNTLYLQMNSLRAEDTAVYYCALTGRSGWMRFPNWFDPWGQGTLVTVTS VL: LTQPPSASGTPGQRVTISCTGTSSNIGAGYDVHWYQQLPGTAPKLLIYDNNNRPSGVPDRFSGSKSGTSASLAISGLRSEDEADYYCAAWDDSLNGVVFGGGTKLTVLG show?
[out] 1.68

[in] Bench note: what EC50 did C7A23 hIgG1 (antibody, V domains shown, also called C7A23-IgG) VH: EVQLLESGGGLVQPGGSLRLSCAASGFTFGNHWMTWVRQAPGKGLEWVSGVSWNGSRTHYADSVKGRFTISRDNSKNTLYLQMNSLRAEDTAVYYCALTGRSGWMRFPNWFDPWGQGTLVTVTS VL: QSVLTQPPSASGTPGQRVTISCSGSSSNIGNNYVSWYQQLPGTAPKLLIYRNNQRPSGVPDRFSGSKSGTSASLAISGLRSEDEADYYCQSYDSDLSGPYVLFGGGTKLTVLG show?
[out] 10.9
